Measured IC50 accompanies every entry in the list below.
- TARGET_OF_ASSAY: α-chymotrypsin (Bos taurus, UniProt P00766)
Bridge positions count the residues as written; N and C are the ends. Peptide text beside a SMILES is read from it.
Please respond with the number in µM and leave the unit unwritten.

CC[C@H](C)[C@@H]1NC(=O)[C@H](CO)NC(=O)[C@H](Cc2ccccc2)NC(=O)[C@H]([C@@H](C)O)NC(=O)[C@@H](NC(=O)[C@@H](N)CC(C)C)CSSC[C@@H](C(=O)N[C@@H](Cc2ccc(O)cc2)C(=O)NCC(=O)O)NC(=O)[C@H](CCC(N)=O)NC(=O)[C@@H]2CCCN2C(=O)[C@@H]2CCCN2C1=O [CH1] (H-LCTFSIPPQCYG-OH; disulfide 2-10; N-terminus and C-terminus assumed) | 1.07

In: Given CC[C@H](C)[C@@H]1NC(=O)[C@H](CO)NC(=O)[C@H](Cc2ccc(O)cc2)NC(=O)[C@H]([C@@H](C)O)NC(=O)[C@@H](NC(=O)[C@@H](N)Cc2ccccc2)CSSC[C@@H](C(=O)N[C@@H](Cc2ccc(O)cc2)C(=O)O)NC(=O)[C@H](CCCCN)NC(=O)[C@H](C)NC(=O)[C@@H]2CCCN2C1=O [CH36] (H-FCTYSIPAKCY-OH; disulfide 2-10; N-terminus and C-terminus assumed) , state its recorded IC50.
Out: 3.23

====

- TARGET_OF_ASSAY: porcine pancreatic elastase (Sus scrofa, UniProt P00772)
- Sequence (P00772 27-266): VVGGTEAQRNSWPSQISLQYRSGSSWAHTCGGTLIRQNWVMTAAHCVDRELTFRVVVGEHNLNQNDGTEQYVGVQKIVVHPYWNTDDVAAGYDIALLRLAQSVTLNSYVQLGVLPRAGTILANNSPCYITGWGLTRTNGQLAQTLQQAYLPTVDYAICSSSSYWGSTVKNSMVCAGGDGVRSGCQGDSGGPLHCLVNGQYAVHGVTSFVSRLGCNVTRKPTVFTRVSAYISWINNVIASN
- ASSAY_TEXT: Elastase inhibitory activity of peptides (AAApNA hydrolysis; IC50, Ki, residual activity)
- Type: biochemical
- CONDITION_CONTEXT: peptide 1000 μM; elastase 0.5 μM, AAApNA 1 mM
Bridge positions count the residues as written; N and C are the ends. Peptide text beside a SMILES is read from it.
PARAMETER_MEASURED: Residual activity of elastase (%)
Please respond with the number in % and leave the unit unwritten.

Here are 4 compounds together with their reported answers.
CC[C@H](C)[C@@H]1NC(=O)[C@@H]2CCCN2C(=O)[C@@H]2CCCN2C(=O)[C@H]([C@@H](C)CC)NC(=O)[C@H](CO)NC(=O)[C@H](C)NC(=O)[C@H]([C@@H](C)O)NC(=O)[C@@H](NC(=O)[C@@H](N)C(C)C)CSSC[C@@H](C(=O)N[C@@H](CCC(N)=O)C(=O)O)NC1=O [EC22] (H-VCTASIPPICQ-OH; disulfide 2-10; C-terminus assumed) | −0.2
CC[C@H](C)[C@@H]1NC(=O)[C@@H]2CCCN2C(=O)[C@@H]2CCCN2C(=O)[C@H]([C@@H](C)CC)NC(=O)[C@H](CO)NC(=O)[C@H](C)NC(=O)[C@H]([C@@H](C)O)NC(=O)[C@@H](NC(=O)[C@@H](N)Cc2ccc(O)cc2)CSSC[C@@H](C(=O)N[C@@H](CCC(N)=O)C(=O)O)NC1=O [EC29] (H-YCTASIPPICQ-OH; disulfide 2-10; C-terminus assumed) | 0.1
CC[C@H](C)[C@H](N)C(=O)N[C@H]1CSSC[C@@H](C(=O)N[C@@H](CCC(N)=O)C(=O)O)NC(=O)[C@H](CCC(N)=O)NC(=O)[C@@H]2CCCN2C(=O)[C@@H]2CCCN2C(=O)[C@H]([C@@H](C)CC)NC(=O)[C@H](CO)NC(=O)[C@H](C)NC(=O)[C@H]([C@@H](C)O)NC1=O [EC19] (H-ICTASIPPQCQ-OH; disulfide 2-10; N-terminus and C-terminus assumed) | 0.0
CC[C@H](C)[C@H](N)C(=O)N[C@H]1CSSC[C@@H](C(=O)N[C@@H](CCC(N)=O)C(=O)O)NC(=O)[C@H]([C@@H](C)CC)NC(=O)[C@@H]2CCCN2C(=O)[C@@H]2CCCN2C(=O)[C@H]([C@@H](C)CC)NC(=O)[C@H](CO)NC(=O)[C@H](C)NC(=O)[C@H]([C@@H](C)O)NC1=O [EC23] (H-ICTASIPPICQ-OH; disulfide 2-10; C-terminus assumed) | −0.2

In: Given CC[C@H](C)[C@@H]1NC(=O)[C@@H]2CCCN2C(=O)[C@@H]2CCCN2C(=O)[C@H]([C@@H](C)CC)NC(=O)[C@H](CO)NC(=O)[C@H](C)NC(=O)[C@H]([C@@H](C)O)NC(=O)[C@@H](NC(=O)[C@@H](N)CC(C)C)CSSC[C@@H](C(=O)N[C@@H](CCC(N)=O)C(=O)O)NC1=O [EC12] (H-LCTASIPPICQ-OH; disulfide 2-10; N-terminus and C-terminus assumed) , state its recorded Residual activity of elastase.
Out: 0.3
